target-under-test: T1, FCHO1 μHD R872M (Homo sapiens)
T1 chain: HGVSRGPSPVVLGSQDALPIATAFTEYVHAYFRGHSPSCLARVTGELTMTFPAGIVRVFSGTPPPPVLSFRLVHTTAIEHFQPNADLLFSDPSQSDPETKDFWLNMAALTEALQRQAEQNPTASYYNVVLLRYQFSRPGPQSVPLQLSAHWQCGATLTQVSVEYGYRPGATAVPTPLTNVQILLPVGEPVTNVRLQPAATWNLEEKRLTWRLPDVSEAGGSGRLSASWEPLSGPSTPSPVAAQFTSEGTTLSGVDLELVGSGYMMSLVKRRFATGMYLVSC
measurement-protocol: ITC
property-label: Kd (µM)
Only the number, expressed in µM, is required.

[Q] Answer with the recorded Kd for the binder listed here: NLDFFQSDPFVGSDPFKDDPFGK [EPS15 616–638 peptide]
[A] 19.6
